biological target: Acetylcholinesterase (Homo sapiens); test: Acetylcholinesterase (AChE) small molecule antagonists: enzyme-based qHTS assay with human liver microsomes (AID 1347399); conditions: qHTS inhibition; series mostly up to 115 µM; further: nearly all actives have a fitted effect of over 60% in size
Activity calls are given as the source filed them. The call rests on the fitted dose curve.
value.type: outcome

Consider the worked cases shown below.
CC(C)C1=CC2=CC[C@@H]3[C@](C)(CCC[C@@]3(C)C(=O)O)[C@H]2CC1    inactive
OCC(O)[C@@H](O)[C@H](O)[C@H](O)CO[C@H]1O[C@H](CO)[C@@H](O)[C@H](O)[C@H]1O (some centres not stated)    inactive
CC(=O)/C(C)=C/C1C(C)=CCCC1(C)C (configuration not stated)    inactive
[O-]/[N+](=N\O)c1ccccc1    inactive
CCCCOC(=O)CCC(C)=O    inactive
Clc1ccc2c(c1)Nc1ccccc1S2    inactive
O=C1O[C@H](CO)[C@@H](O)[C@H](O)[C@H]1O    inactive
CCCCN(CCCC)CCCCCCN(CCCC)CCCC    inactive

Query string: What does the data say about its outcome? Entry: `O=C(c1ccccc1O)c1ccccc1O`
Result string: inactive

Query string: What does the data say about its outcome? Entry: `CCCCCCCC/C=C\CCCCCCCCOCCO`
Result string: inactive

Query string: What does the data say about its outcome? Entry: `CCc1cccc(O)c1`
Result string: inactive
